- Test system: P. vulgaris IFO 3988
- experiment: Minimal Inhibitory Concentration (MIC), agar dilution method
- Assay type: cell-based
- Parameters: unit not given here
- condition.description: Test Microorganism (11) P. vulgaris IFO 3988; Trypticase soy agar, 37°C for 18 hours
readout: Minimal Inhibitory Concentration (MIC)
Just the number, please, no unit after it.

Consider the following illustrative entries.
1. CC(C)(O)[C@@H]1C(=O)N2C(C(=O)O)=C(SCCNC=N)C[C@H]12 [Example 46]; 25
2. CC(C)(O)[C@@H]1C(=O)N2C(C(=O)O)=C(SCCCN)C[C@H]12 [Example 33]; 50
3. CN(C)CCSC1=C(C(=O)O)N2C(=O)[C@@H](C(C)(C)O)[C@H]2C1 [Example 26]; 50

CC(C)(O)[C@@H]1C(=O)N2C(C(=O)O)=C(SCCN3CCCC3)C[C@H]12 [Example 49] has a reported Minimal Inhibitory Concentration (MIC) of 100

CC(C)(O)[C@@H]1C(=O)N2C(C(=O)O)=C(SCCN3CCCCC3)C[C@H]12 [Example 51] has a reported Minimal Inhibitory Concentration (MIC) of 25

CC(C)(O)[C@@H]1C(=O)N2C(C(=O)O)=C(Sc3cccnn3)C[C@H]12 [Example 20] has a reported Minimal Inhibitory Concentration (MIC) of 3.13

CC(C)(O)[C@@H]1C(=O)N2C(C(=O)O)=C(SCCN)C[C@H]12 [Example 2] has a reported Minimal Inhibitory Concentration (MIC) of 50

CC(C)(O)[C@@H]1C(=O)N2C(C(=O)O)=C(SCCCNC=N)C[C@H]12 [Example 47] has a reported Minimal Inhibitory Concentration (MIC) of 25
